# System: A549
# assay-name: Cytotoxicity against human A549 cells assessed as inhibition of cell proliferation after 48 hrs by MTT assay
# Format: functional, cell-based
# protocol-conditions: A549, 48 h
pIC50: −log10 of the molar value.
Classify by measured pIC50: yes if it is equal to or exceeds 5, no if it is smaller.

[
  {
    "smiles-code": "Cc1ccc(-c2cc(C(=O)NCCN(C)C)c3ccc4ccccc4c3n2)cc1",
    "class-assignment": "yes"
  }
]

Check this compound for pIC50 at or above 5: CN(C)CCNC(=O)c1cc(-c2ccccn2)nc2c1ccc1ccccc12
no

Quick check: does COc1cc(-c2cc(C(=O)NCCN(C)C)c3ccc4c(c3n2)CCCC4)cc(OC)c1OC have pIC50 greater than or equal to 5?
no

Confirm if pIC50 reported for the compound COc1ccc(-c2cc(C(=O)NCCN(C)C)c3ccc4c(c3n2)CCCC4)cc1OC is 5 or above.
no

Answer whether pIC50 of Cc1ccc(-c2cc(C(=O)NCCN(C)C)c3ccc4c(c3n2)CCCC4)cc1 is greater than or equal to 5.
yes

Hi, just wondering whether CC(=O)Nc1ccc(-c2cc(C(=O)NCCN(C)C)c3ccc4c(c3n2)CCCC4)cc1 shows pIC50 of 5 or higher.
yes

* * *

Recorded pIC50 by entry
# Tested on: A549
# assay-name: Cytotoxicity against human A549 cells assessed as inhibition of cell proliferation after 48 hrs by MTT assay
# Assay type: functional, cell-based
# protocol-conditions: A549, 48 h
When answering, recall that pIC50 equals minus log10 of the concentration in mol/L, and write that number alone.

[
  {
    "smiles-code": "CN(C)CCNC(=O)c1cc(-c2ccc(F)cc2)nc2c1ccc1ccccc12",
    "pIC50": 4.73
  },
  {
    "smiles-code": "CN(C)CCNC(=O)c1cc(-c2ccccn2)nc2c3c(ccc12)CCCC3",
    "pIC50": 4.22
  },
  {
    "smiles-code": "COc1ccc(-c2cc(C(=O)NCCN(C)C)c3ccc4c(c3n2)CCCC4)cc1",
    "pIC50": 5.30
  },
  {
    "smiles-code": "COc1cccc2c1C(=O)c1c(O)c3c(c(O)c1C2=O)C[C@@](O)(C(=O)CO)C[C@@H]3O[C@H]1C[C@H](N)[C@H](O)[C@H](C)O1",
    "pIC50": 6.12
  },
  {
    "smiles-code": "CN(C)CCNC(=O)c1cc(-c2ccc(F)cc2)nc2c3c(ccc12)CCCC3",
    "pIC50": 4.87
  }
]

Quick check: pIC50 of COc1ccc(-c2cc(C(=O)NCCN(C)C)c3ccc4ccccc4c3n2)cc1 ?
4.70

Returns the measured pIC50 for the input compound. Input: CC(=O)Nc1ccc(-c2cc(C(=O)NCCN(C)C)c3ccc4ccccc4c3n2)cc1
5.10

Return reported pIC50; argument: CN(C)CCNC(=O)c1cc(-c2ccccc2)nc2c1ccc1ccccc12
4.18

Data origin: ChEMBL document CHEMBL4411308
